Overview of reported pEC50 across a group of molecules:
Target: F508delCFTR (Homo sapiens, UniProt P13569, DEL508-508)
Construct: expressed in transfected cells; host or cells: CFBE41o- human lung derived epithelial cells (CFBE41o-F508delCFTR-HRP), doxycycline-inducible
Sequence (P13569 with tags, fused parts or gaps DEL508-508): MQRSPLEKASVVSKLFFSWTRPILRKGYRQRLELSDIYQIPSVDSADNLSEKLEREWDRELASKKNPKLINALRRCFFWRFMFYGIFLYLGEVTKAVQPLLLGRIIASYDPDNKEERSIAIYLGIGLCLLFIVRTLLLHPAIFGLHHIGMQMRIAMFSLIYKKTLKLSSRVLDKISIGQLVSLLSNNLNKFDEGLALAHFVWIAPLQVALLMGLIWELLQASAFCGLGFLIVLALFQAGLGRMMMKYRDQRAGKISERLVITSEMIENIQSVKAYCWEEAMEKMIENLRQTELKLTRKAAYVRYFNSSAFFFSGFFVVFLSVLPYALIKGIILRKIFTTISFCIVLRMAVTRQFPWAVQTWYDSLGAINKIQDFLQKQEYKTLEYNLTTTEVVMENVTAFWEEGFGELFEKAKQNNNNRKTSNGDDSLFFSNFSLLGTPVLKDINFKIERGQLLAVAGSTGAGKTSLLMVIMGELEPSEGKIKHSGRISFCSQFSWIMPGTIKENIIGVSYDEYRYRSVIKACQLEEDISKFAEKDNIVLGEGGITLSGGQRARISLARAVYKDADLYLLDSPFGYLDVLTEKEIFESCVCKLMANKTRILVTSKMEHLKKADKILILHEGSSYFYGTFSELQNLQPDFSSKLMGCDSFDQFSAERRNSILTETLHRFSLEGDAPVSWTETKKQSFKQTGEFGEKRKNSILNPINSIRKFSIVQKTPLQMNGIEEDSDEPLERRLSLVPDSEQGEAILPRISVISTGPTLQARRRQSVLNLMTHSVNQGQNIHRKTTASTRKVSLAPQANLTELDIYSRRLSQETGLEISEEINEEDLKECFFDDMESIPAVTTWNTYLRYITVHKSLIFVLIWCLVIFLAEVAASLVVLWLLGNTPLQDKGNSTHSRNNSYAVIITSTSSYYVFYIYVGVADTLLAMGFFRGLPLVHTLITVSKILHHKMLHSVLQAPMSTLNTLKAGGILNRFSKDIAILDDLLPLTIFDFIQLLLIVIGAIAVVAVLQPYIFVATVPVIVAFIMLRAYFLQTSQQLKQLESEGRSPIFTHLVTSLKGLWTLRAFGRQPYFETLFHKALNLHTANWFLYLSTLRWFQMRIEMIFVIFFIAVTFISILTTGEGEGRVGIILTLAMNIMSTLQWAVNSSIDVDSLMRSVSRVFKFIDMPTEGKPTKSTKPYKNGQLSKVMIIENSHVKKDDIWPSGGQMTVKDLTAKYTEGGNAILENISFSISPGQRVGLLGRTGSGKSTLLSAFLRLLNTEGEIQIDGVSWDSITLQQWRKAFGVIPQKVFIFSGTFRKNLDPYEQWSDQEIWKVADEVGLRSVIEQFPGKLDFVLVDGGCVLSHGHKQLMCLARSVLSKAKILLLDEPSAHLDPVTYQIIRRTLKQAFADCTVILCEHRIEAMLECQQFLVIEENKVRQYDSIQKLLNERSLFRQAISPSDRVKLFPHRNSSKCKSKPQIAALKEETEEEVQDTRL
Experiment: Cell Surface Expression-Horse Radish Peroxidase (CSE-HRP) Assay;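 on EC50 (with co-corrector): co-corrector chromenyl benzoic acid corrector at 2 or 3 µM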
Format: cell-based
Conditions: with co-corrector; read-out: EC50 (with co-corrector)
pEC50: −log10 of the molar value.

Worked examples follow.
| cpd.smiles | system | pEC50 |
| --- | --- | --- |
| COc1cc(OC(C)C)c(C2(C(=O)NS(=O)(=O)c3cccc4ncccc34)CC2)cn1 | F508delCFTR (Homo sapiens, UniProt P13569, DEL508-508) | > 5.52 |
| COc1ncc(C(F)(F)F)cc1C1(C(=O)NS(=O)(=O)c2cccc3ncccc23)CC1 | F508delCFTR (Homo sapiens, UniProt P13569, DEL508-508) | > 5.52 |
| CN(C(=O)C1(c2ccc(Cl)cc2Cl)CC1)S(=O)(=O)c1ccc(Cl)cc1 | F508delCFTR (Homo sapiens, UniProt P13569, DEL508-508) | < 5.00 |

stdin: Data request, read-out pEC50, for COc1ccc(C)nc1C1(C(=O)NS(=O)(=O)c2cccc3nc(C)ccc23)CC1
stdout: > 5.52

stdin: Try COc1ccc(C(C)C)cc1C1(C(=O)NS(=O)(=O)c2cccc3c2CCCN3)CCC1 next.
stdout: > 5.52

stdin: Next entry: COc1ccccc1C1(C(=O)NS(=O)(=O)c2ccccc2C)CC1
stdout: 5.00 to 5.52

stdin: Lookup CCn1nc(C2(C(=O)NS(=O)(=O)c3cccc4ccccc34)CC2)cc1C
stdout: 5.00 to 5.52

stdin: What about CC(C)Oc1ncc(Br)cc1C1(C(=O)NS(=O)(=O)c2cccc3c2CCCN3)CC1 ?
stdout: > 5.52

* * *

Molecular target: F508delCFTR (Homo sapiens, UniProt P13569, DEL508-508)
Construct: expressed in transfected cells; host or cells: CFBE41o- human lung derived epithelial cells (CFBE41o-F508delCFTR-HRP), doxycycline-inducible
Test: Cell Surface Expression-Horse Radish Peroxidase (CSE-HRP) Assay
Type: cell-based
Settings: with co-corrector; maximum at any tested concentration
quantity.measured: Maximum % activity (with co-corrector)

# example entries with known answers
| compound | system | Maximum % activity (with co-corrector) |
| --- | --- | --- |
| CN(C)c1ncc(C(F)(F)F)cc1C1(C(=O)NS(=O)(=O)c2cccc3ncccc23)CC1 [Example I-57] | F508delCFTR (Homo sapiens, UniProt P13569, DEL508-508) | +++ (≥350) |
| COc1ccc(C2COC2)cc1C1(C(=O)NS(=O)(=O)c2cccc3ncccc23)CC1 [Example I-90] | F508delCFTR (Homo sapiens, UniProt P13569, DEL508-508) | +++ (≥350) |
| Cc1ccc(O[C@@H]2CCOC2)c(C2(C(=O)NS(=O)(=O)c3cccc4nc(C)ccc34)CC2)c1 [Example I-123] | F508delCFTR (Homo sapiens, UniProt P13569, DEL508-508) | +++ (≥350) |
| COc1cccc(C)c1C1(C(=O)NS(=O)(=O)c2cccc3c2CCCN3)CC1 [II-53] | F508delCFTR (Homo sapiens, UniProt P13569, DEL508-508) | +++ (≥350) |
| Cc1ccc(OC(C)C)c(C2(C(=O)NS(=O)(=O)c3cccc4nc(N)ccc34)CC2)c1 [Example I-87] | F508delCFTR (Homo sapiens, UniProt P13569, DEL508-508) | +++ (≥350) |

stdin: I am curious: what Maximum % activity (with co-corrector) value has been reported for O=C(NS(=O)(=O)c1cccc2ncccc12)C1(c2cc(OC(F)(F)F)ccc2Cl)CC1 [II-24] ?
stdout: +++ (≥350)

stdin: Try CC(=O)N1CCC(S(=O)(=O)NC(=O)C2(c3ccc(Cl)cc3Cl)CC2)CC1 [Example III-78] next.
stdout: + (<150)

stdin: Thanks! And COc1ccc(C2CCC2)cc1C1(C(=O)NS(=O)(=O)c2cccc3c2CCCN3)CC1 [Example I-16] ?
stdout: +++ (≥350)

stdin: Next up: O=C(NS(=O)(=O)c1cccc2c(O)cccc12)C1(c2cccc(Cl)c2)CC1 [Example III-57]
stdout: + (<150)

stdin: Now this one: Cc1ccc(OC(F)F)c(C2(C(=O)NS(=O)(=O)c3cccc4nc(C)ccc34)CC2)c1 [II-101]
stdout: +++ (≥350)

stdin: Try the compound O=C(NS(=O)(=O)c1ccccc1)C1(c2ccc(Cl)cc2)CC1 [Example III-33]
stdout: ++ (≥150 and <350)

stdin: Consider next the compound O=C(NS(=O)(=O)c1ccc(-n2cccn2)cc1)C1(c2cccc(Cl)c2)CC1 [Example III-73] in the same way.
stdout: + (<150)

stdin: Entry to check: Cc1noc(C)c1S(=O)(=O)NC(=O)C1(c2ccc(Cl)cc2Cl)CC1 [Example III-12]
stdout: ++ (≥150 and <350)
